Provide the recorded Kd for the entries that follow.
target_entity: T1, Sas5_(YEATS) (S. cerevisiae, UniProt Q99314 2-139)
T1 chain: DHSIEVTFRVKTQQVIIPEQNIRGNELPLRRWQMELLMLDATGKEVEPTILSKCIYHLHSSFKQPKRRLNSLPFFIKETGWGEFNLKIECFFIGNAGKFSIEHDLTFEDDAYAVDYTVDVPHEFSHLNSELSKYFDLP
assay_remarks: ITC
Ends that are not written are not given here. * marks the point of attachment. Bz = O=C(c1ccccc1)*
Numbers only, in µM.

For every record below, what is its Kd?
1. KQLASKAARK(Bz)SAPSTGGVKY [H3K27bz peptide]
2. APRKQLASK(Bz)AARKSAPSTY [H3K23bz peptide]
3. STGGKAPRKQLASKAARY (benzoyl-lysine (Kbz) at K18) [H3K18bz peptide]

[92.6, 279, 245]

Okay, here is my list. What is Kd for each of these?
1. ARTKQTARKSTGGKAPRKQY (benzoyl-lysine (Kbz) at K9) [H3K9bz peptide]
2. TARKSTGGK(Bz)APRKQLASY [H3K14bz peptide]

1. 178
2. 100
